From: PubChem BioAssay (NCI)

test system: OVCAR-4 ovarian; assay: NCI tumour cell line growth inhibition, 48 h; in the data active means GI50 below about 0.43 µM; inactive means the rest
Labels: 1 = active, -1 = inactive

{"compound": "COc1cc(/C=C/[N+](=O)[O-])cc(OC)c1", "group": -1}
{"compound": "CCN1C(=O)N(CC)C2C1NN=c1s/c(=C\\c3ccc(Br)cc3)c(=O)n12 (stereo unspecified)", "group": 1}
{"compound": "CCCCCCCC(=O)[O-].N.N.N.N.N.[Co+3].[O-][Cl+3]([O-])([O-])[O-]", "group": -1}
{"compound": "Cc1ccccc1N=C(c1ccccc1)C1C(=O)c2ccccc2C1=O", "group": -1}
{"compound": "CC(=O)OCc1cc[c]([Hg][Cl])o1", "group": -1}
{"compound": "CCN(Cc1c(F)cccc1C(F)(F)F)c1ccc(CO)c(Cl)c1", "group": 1}
{"compound": "Cc1ccc2c(c1)n([O-])c(C(F)(F)F)c(C(=O)c1ccco1)[n+]2=O", "group": -1}
{"compound": "CC(C)Cc1cc(-c2cccn2C)c(C#N)c(=O)[nH]1", "group": -1}
{"compound": "Nc1cc2c3ccccc3ccc2c2ccccc12", "group": -1}
{"compound": "COc1ccc(CNCCN2C(=O)c3ccc4c5c(ccc(c35)C2=O)C(=O)N(CCNCc2ccc(OC)c(OC)c2OC)C4=O)c(OC)c1OC", "group": 1}
{"compound": "COc1cccc(/C=C/C(=O)c2cc3c(N)c(C(=O)Nc4ccccc4)sc3nc2C)c1", "group": -1}

====

tested on: MOLT-4 leukemia; test: NCI tumour cell line growth inhibition, 48 h

{"molecule": "C=C1C(=O)O[C@H]2[C@H]1CC/C(COC(=O)NCCc1ccc(Br)cc1)=C\\CC[C@@]1(C)O[C@@H]21", "TGI": "4.8 µM"}
{"molecule": "Cc1c2cc[n+](C)cc2c(C)c2c1[nH]c1ccc(OC(C)(C)C)cc12", "TGI": "> 100 µM"}
{"molecule": "Cc1ccc(S(=O)(=O)N(CC(O)COc2ccccc2)c2ccccc2Cl)cc1 (configuration not stated)", "TGI": "52.9 µM"}
{"molecule": "COc1ccccc1-c1nc[nH]c1-c1ccccc1OC", "TGI": "> 100 µM"}
{"molecule": "O=C(/C=C/c1cc2ccccc2[nH]c1=O)c1ccc(O)cc1", "TGI": "9.91 µM"}
{"molecule": "Cn1cnc([N+](=O)[O-])c1Sc1nnc(-c2ccc(Cl)cc2)n1C", "TGI": "66.1 µM"}
{"molecule": "CCOC(=O)C(NS(=O)(=O)c1ccccc1)(C(F)(F)F)P(=O)(OCC(C)C)OCC(C)C (configuration not stated)", "TGI": "> 100 µM"}
{"molecule": "NC(=O)C1CCCN1Cc1ccc2c(c1)OCO2 (configuration not stated)", "TGI": "> 100 µM"}
{"molecule": "O=S1c2ccccc2N=C(c2cccs2)CC1c1ccccc1O (configuration not stated)", "TGI": "> 100 µM"}
{"molecule": "CCN1C(=O)N(CC)C2C1NN=c1s/c(=C\\c3ccc(Br)cc3)c(=O)n12 (configuration not stated)", "TGI": "> 100 µM"}
{"molecule": "N/C(=N/O)NOCCC(N)C(=O)O (configuration not stated)", "TGI": "> 100 µM"}
{"molecule": "c1ccc(OCC[P+](c2ccccc2)(c2ccccc2)c2ccccc2)cc1", "TGI": "27.2 µM"}

====

tested on: SNB-78 CNS; test: NCI tumour cell line growth inhibition, 48 h
TGI values by entry
readout kind: TGI

{"molecule": "Cc1nc2cc3[nH]c4ccccc4c(=O)c3cc2s1", "val": "> 100 µM"}
{"molecule": "Cc1ccccc1C1SCc2nc3ccccc3n21 (stereo not given)", "val": "> 100 µM"}
{"molecule": "CCn1c(C)nc([N+](=O)[O-])c1Sc1ncc[nH]1", "val": "> 100 µM"}
{"molecule": "CN1C(=O)CC(CC(=O)C2CCCCC2=O)CC1=O (stereo not given)", "val": "> 100 µM"}
{"molecule": "CC(C)(C)c1cc([Si](C)(C)C)c(C#N)c([Si](C)(C)C)c1", "val": "> 100 µM"}
{"molecule": "CCCCCCCC(=O)[O-].N.N.N.N.N.[Co+3].[O-][Cl+3]([O-])([O-])[O-]", "val": "> 100 µM"}
{"molecule": "COc1ccc(/C=C2\\CCC(C)(CN(C)C)C2=O)cc1Br (stereo not given)", "val": "86 µM"}
{"molecule": "C#CCN(Cc1ccc2nc(-c3ccccc3)c(Cl)nc2c1)c1ccc(Cl)c(Cl)c1", "val": "> 100 µM"}
{"molecule": "O=C(C#Cc1ccccc1)Nc1ccccc1CC(c1c[nH]c2ccccc12)c1c[nH]c2ccccc12", "val": "97.6 µM"}
{"molecule": "CCC(/C(=N/NC(=O)C[N+](C)(C)C)c1ccccc1)C1OC(=O)c2ccccc21 (stereo not given)", "val": "> 100 µM"}
{"molecule": "OCC1OC(NO)C(O)C(O)C1O (stereo not given)", "val": "> 100 µM"}
{"molecule": "COc1ccc(-c2oc(C=Nc3ccccc3)c([N+](=O)[O-])c2-c2ccc(OC)c(OC)c2)cc1OC", "val": "> 100 µM"}
{"molecule": "CC1O[C@@H]2CCCCC(=O)[C@]2(C)[C@H]1C (stereo not given in full)", "val": "> 100 µM"}
{"molecule": "Clc1cc2ns[s+]c2cc1Cl", "val": "> 100 µM"}
{"molecule": "Cc1c2cc[n+](C)cc2c(C)c2c1[nH]c1ccc(OC(C)(C)C)cc12", "val": "> 100 µM"}
{"molecule": "O=S(=O)(O)c1ccc([Se][Se]c2ccc(S(=O)(=O)O)cc2)cc1", "val": "> 100 µM"}
{"molecule": "COc1ccc(NC(=O)CC2SC(=Nc3ccc(Cl)cc3C)NC2=O)c([N+](=O)[O-])c1 (stereo not given)", "val": "> 100 µM"}
{"molecule": "COC(=O)/C(=C1\\OC(=O)C(c2ccc(Cl)cc2)=C1O)c1ccc(Cl)cc1", "val": "> 100 µM"}
{"molecule": "O=C1C(Nc2ccc(S(=O)(=O)Nc3cnc4ccccc4n3)cc2)=CC(=Nc2ccc(S(=O)(=O)Nc3cnc4ccccc4n3)cc2)c2ccccc21", "val": "47.3 µM"}
{"molecule": "O=C1/C(=C/c2ccc(C(=O)O)cc2)CNC/C1=C\\c1ccc(C(=O)O)cc1", "val": "> 100 µM"}

====

TGI values by entry
tested on: T-47D breast; assay: NCI tumour cell line growth inhibition, 48 h
readout kind: TGI

{"molecule": "Nc1[nH]c(=S)[nH]c(=O)c1N=Nc1c(Br)cc(S(N)(=O)=O)cc1Br", "val": "> 100 µM"}
{"molecule": "COc1cc(-c2cc(-c3ccc(Nc4nc(Nc5ccc(Cl)cc5)nc(Nc5ccc(Cl)cc5)n4)cc3)no2)cc(OC)c1OC", "val": "> 100 µM"}
{"molecule": "Cc1cc(C2CC(O)C(CO)O2)c(Br)cc1Br (stereo unspecified)", "val": "> 100 µM"}
{"molecule": "Nc1ncnc2c1ncn2Cc1ccc(CCl)cc1", "val": "27.4 µM"}
{"molecule": "CCN1C(=O)N(CC)C2C1NN=c1s/c(=C\\c3ccc(Br)cc3)c(=O)n12 (stereo unspecified)", "val": "> 100 µM"}
{"molecule": "CC#CC#C/C=C1/C=CC2(CCCCO2)O1 (stereo unspecified)", "val": "> 100 µM"}
{"molecule": "O=C(C#Cc1ccccc1)N1CCCCC1", "val": "> 100 µM"}
{"molecule": "CCOP(=O)(OCC)C(Cc1cn(S(=O)(=O)c2ccc(C)cc2)cn1)C(=O)O (stereo unspecified)", "val": "> 100 µM"}
{"molecule": "COc1c(C(=O)CC2c3c(cc4oc(C)cc(=O)c4c3OC)OC(=N)C2c2nc3ccccc3[nH]2)c(O)c(OC)c2occc12 (stereo unspecified)", "val": "> 100 µM"}
{"molecule": "C#Cc1cccc(NC(=O)C2CCCCN2C(=O)CCl)c1 (stereo unspecified)", "val": "> 82.5 µM"}
{"molecule": "CC(C)Cc1cc(-c2cccn2C)c(C#N)c(=O)[nH]1", "val": "> 100 µM"}

====

test system: NCI-H522 lung; experiment: NCI tumour cell line growth inhibition, 48 h
readout kind: log10 TGI (log10 of the value in µM)

{"compound": "O=C(NNC(=O)c1ccccc1O)c1cccs1", "log10 TGI": 1.81}
{"compound": "C#Cc1cccc(NC(=O)C2CCCCN2C(=O)CCl)c1 (configuration not stated)", "log10 TGI": 1.39}
{"compound": "CC(=O)O[C@H]1C(=O)[C@@]2(C)C(C(OC(=O)c3ccccc3)[C@]3(O)CC(OC(=O)C(O)C(NC(=O)c4cccc(Cl)c4)c4ccccc4)C(C)=C1C3(C)C)[C@]1(OC(C)=O)CO[C@@H]1C[C@@H]2O (some centres not stated)", "log10 TGI": 0.58}
{"compound": "COC1C[C@H](O[C@@H]2C[C@H](O[C@@H]3C[C@H](O[C@@H]4C(=O)c5c(cc6cc(O[C@H]7C[C@@H](O[C@H]8C[C@@H](O)[C@H](O)C(C)O8)[C@H](O)C(C)O7)c(C)c(O)c6c5O)C[C@H]4C(OC)C(=O)[C@@H](O)[C@@H](C)O)OC(C)[C@H]3O)OC(C)[C@@H]2O)OC(C)[C@@H]1O (some centres not stated)", "log10 TGI": -0.58}
{"compound": "CCn1c(C)nc([N+](=O)[O-])c1Sc1ncc[nH]1", "log10 TGI": 1.58}
{"compound": "COC(=O)/C(=C1\\OC(=O)C(c2ccc(Cl)cc2)=C1O)c1ccc(Cl)cc1", "log10 TGI": 1.70}
